// provenance: BindingDB's records for doi:10.1021/jm00058a003

- Measurement target: 5-HT1A receptor (Bos taurus)
- Test name: In vitro binding affinity towards [3H]8-OH-DPAT-labeled 5-hydroxytryptamine 1A receptor sites in bovine hippocampus.
Listing: pKi of selected compounds
# reply with the number alone; pKi is -log10 of concentration in mol/L

Compound | Measurement target | Quantitative result
C=CC[C@@H]1c2c(cccc2OC)CC[C@H]1NCC1CC1 (relative stereo) | 5-HT1A receptor (Bos taurus) | 8.39
CCCN[C@@H]1CCc2cccc(OC)c2[C@@H]1CCC | 5-HT1A receptor (Bos taurus) | 7.96
C=CC[C@H]1c2c(O)cccc2CC[C@H]1NCCC | 5-HT1A receptor (Bos taurus) | 9.30

Task: For the record `C=CC[C@H]1c2c(cccc2OC)CC[C@H]1NCC1CC1` , what value of pKi is listed for 5-HT1A receptor (Bos taurus)?
Result: 8.54

Task: For the record C=CCN[C@@H]1CCc2cccc(OC)c2[C@H]1CC1CC1 (relative stereo) , what value of pKi is listed for 5-HT1A receptor (Bos taurus)?
Result: 7.82

Task: For the record `C=CCN[C@@H]1CCc2ccccc2[C@@H]1CC=C` , what value of pKi is listed for 5-HT1A receptor (Bos taurus)?
Result: 6.82

Task: For the record C=CC[C@@H]1c2c(cccc2OC)CC[C@H]1NCCC (relative stereo) , what value of pKi is listed for 5-HT1A receptor (Bos taurus)?
Result: 7.72

Task: For the record `CCCN(C)[C@@H]1CCc2cccc(OC)c2[C@@H]1CO` , what value of pKi is listed for 5-HT1A receptor (Bos taurus)?
Result: 8.30

Task: For the record `CCCN[C@@H]1CCc2cccc(OC)c2[C@@H]1CO` , what value of pKi is listed for 5-HT1A receptor (Bos taurus)?
Result: 8.27

###

- Measurement target: 5-HT1A receptor (Bos taurus)
- Test name: In vitro binding affinity towards [3H]8-OH-DPAT-labeled 5-hydroxytryptamine 1A receptor sites in bovine hippocampus.
Property label: Ki (nM)
Provide only the numeric value, understood in nM.

Sample records with Ki:
Compound | Measurement target | Ki / nM
C=CC[C@H]1c2ccccc2CC[C@H]1NCCC | 5-HT1A receptor (Bos taurus) | 174
CCCN[C@@H]1CCc2cccc(OC)c2[C@@H]1CC1CC1 | 5-HT1A receptor (Bos taurus) | 15
C=CC[C@H]1c2c(cccc2OC)CC[C@H]1N(CCC)CCC | 5-HT1A receptor (Bos taurus) | 6.3

Would you kindly look at the next entry?
Task: I would be grateful if you could share the reported Ki for CCCN[C@@H]1CCc2cccc(OC)c2[C@H]1CC1CC1 (relative stereo) .
Result: 9.3

###

- Measurement target: 5-HT1A receptor (Bos taurus)
- Test name: In vitro binding affinity towards [3H]8-OH-DPAT-labeled 5-hydroxytryptamine 1A receptor sites in bovine hippocampus.
Property label: Ki (nM)
Provide only the numeric value, understood in nM.

Sample records with Ki:
Structure string | Ki [nM]
C=CCN[C@@H]1CCc2cccc(O)c2[C@@H]1CC=C | 1
C=CC[C@H]1c2c(cccc2OC)CC[C@H]1NCCC | 1.8

Task: I would be grateful if you could share the reported Ki for `C=CCN[C@@H]1CCc2cccc(OC)c2[C@@H]1CC1CC1` .
Result: 9.4
